# MEASUREMENT TARGET: β2 adrenergic receptors in human astrocytoma cells (1321N1) (Homo sapiens (Human), UniProt P07550)
# Sequence (P07550 whole entry): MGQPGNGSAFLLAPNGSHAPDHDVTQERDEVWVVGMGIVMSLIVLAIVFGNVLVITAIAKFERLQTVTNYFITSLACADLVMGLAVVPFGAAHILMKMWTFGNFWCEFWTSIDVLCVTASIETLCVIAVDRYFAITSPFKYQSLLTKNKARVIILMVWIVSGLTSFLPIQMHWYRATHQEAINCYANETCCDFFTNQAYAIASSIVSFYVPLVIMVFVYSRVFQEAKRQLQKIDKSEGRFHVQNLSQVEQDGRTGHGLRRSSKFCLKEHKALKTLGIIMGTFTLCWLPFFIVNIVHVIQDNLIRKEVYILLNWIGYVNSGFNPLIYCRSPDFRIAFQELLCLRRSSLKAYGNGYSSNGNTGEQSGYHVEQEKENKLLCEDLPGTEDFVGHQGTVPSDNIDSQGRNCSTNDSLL
# TEST DETAILS: cAMP HTRF assay in human astrocytoma cells (1321N1)
# Type: cell-based
# RUN PARAMETERS: Endogenous receptor; 1321N1 cells; read-out: Average pEC50 [Receptor subtype: Endogenous; Cell type: 1321N1] (converted)
METRIC NAME: EC50

CC(C)(C)NC[C@H](O)c1cccc(C2CCOCC2)n1 = < 10 nM
COc1ccc(C[C@@H](C)NC[C@H](O)c2cccnc2C)cc1 = 100 to 1000 nM
Cc1ncccc1[C@@H](O)CNC(C)(C)C = 100 to 1000 nM

---

# MEASUREMENT TARGET: B3-AR (Homo sapiens (Human), UniProt P13945)
# Sequence (P13945 whole entry, species assumed): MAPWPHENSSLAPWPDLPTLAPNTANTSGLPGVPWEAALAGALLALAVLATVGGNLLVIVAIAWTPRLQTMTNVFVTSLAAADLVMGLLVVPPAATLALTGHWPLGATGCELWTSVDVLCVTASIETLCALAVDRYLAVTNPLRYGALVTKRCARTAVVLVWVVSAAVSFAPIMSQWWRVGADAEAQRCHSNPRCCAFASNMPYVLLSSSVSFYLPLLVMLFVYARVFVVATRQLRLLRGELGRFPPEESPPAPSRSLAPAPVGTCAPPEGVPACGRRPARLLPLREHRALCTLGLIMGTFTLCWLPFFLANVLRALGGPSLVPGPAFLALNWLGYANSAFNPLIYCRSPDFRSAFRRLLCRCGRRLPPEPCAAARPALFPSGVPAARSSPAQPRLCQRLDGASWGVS
# TEST DETAILS: cAMP potency assay, B3-AR expressing CHO-K1 cells
# Assay type: cell-based
# RUN PARAMETERS: read-out: Average pEC50 [Receptor subtype: B3-AR, Cell type: CHO-K1] (converted)
METRIC NAME: EC50

CC(C)(C)NC[C@H](O)c1cccc(OC(F)(F)F)n1 = 100 to 1000 nM
CC(C)NC[C@H](O)c1cccc(C(F)(F)F)n1 = > 1000 nM
COc1ccc(CC(C)(C)NC[C@H](O)c2cccc(C(F)(F)F)n2)cc1 = 100 to 1000 nM
CC(C)(C)NC[C@H](O)c1cccc(N2CCCC2)n1 = > 1000 nM
CC(C)c1cccc([C@@H](O)CNC(C)(C)C)n1 = > 1000 nM
CC(C)(COc1ccccc1)NC[C@H](O)c1cccc(C(F)(F)F)n1 = 100 to 1000 nM
CC(C)Oc1ncccc1[C@@H](O)CNC(C)(C)C = > 1000 nM
CC(C)(C)NC[C@H](O)c1cccc(C#N)n1 = > 1000 nM
CNc1cccc([C@@H](O)CNC(C)(C)C)n1 = > 1000 nM
CC(C)(C)NC[C@H](O)c1ccc(C(F)(F)F)cn1 = 100 to 1000 nM
CC1(NC[C@H](O)c2cccc(C(F)(F)F)n2)CCC1 = > 1000 nM
CC(C)(C)NC[C@H](O)c1cncc(C(F)(F)F)n1 = > 1000 nM
CC(C)(C)NC[C@H](O)c1cccnc1C1CCCC1 = > 1000 nM

---

# MEASUREMENT TARGET: β2 adrenergic receptor (Homo sapiens (Human), UniProt P07550)
# TEST DETAILS: cAMP Gs dynamic HTRF assay, β2 expressing CHO cells
# Type: cell-based
# RUN PARAMETERS: B2-AR; CHO-K1 (HitHunter); read-out: Average pEC50 [Receptor subtype: B2-AR; Cell type: CHO-K1 (HitHunter)] (converted)
In this section we review reported EC50 values for a set of molecules.
METRIC NAME: EC50

Cc1cc([C@@H](O)CNC(C)(C)C)ccn1 = > 1 µM
COc1ccc(C[C@@H](C)NC[C@@H](O)c2cccc(C(F)(F)F)n2)cc1 = 0.01 to 0.1 µM
CC(C)(C)NC[C@H](O)c1cccnc1C(C)(C)C = > 1 µM
CC(C)(C)NC[C@H](O)c1cccc(-n2cccc2)n1 = < 0.01 µM
CC(C)(C)NC[C@H](O)c1cccc(NC2CC2)n1 = < 0.01 µM
CC(C)(C)NC[C@@H](O)c1cccc(Cl)n1 = 0.01 to 0.1 µM
CC(C)(C)NC[C@@H](O)c1ccnc(C(F)(F)F)c1 = 0.1 to 1 µM
CC(C)(COc1ccccc1)NC[C@H](O)c1cccc(C(F)(F)F)n1 = 0.01 to 0.1 µM
CC(C)(C)NC[C@@H](O)c1cccc(-c2ccc[nH]2)n1 = 0.01 to 0.1 µM
CC1(NC[C@H](O)c2cccc(C(F)(F)F)n2)CC1 = 0.01 to 0.1 µM
CC1(NC[C@@H](O)c2cccc(C(F)(F)F)n2)CCC1 = 0.1 to 1 µM
CC(C)(C)NC[C@H](O)c1cccc(-c2ccccc2Cl)n1 = < 0.01 µM
CC(C)(C)NC[C@H](O)c1cccc(-c2cnn[nH]2)n1 = < 0.01 µM

---

# MEASUREMENT TARGET: β2 adrenergic receptor (Homo sapiens (Human), UniProt P07550)
# TEST DETAILS: cAMP Gs dynamic HTRF assay, β2 expressing CHO cells
# Type: cell-based
# RUN PARAMETERS: B2-AR; CHO-K1 (HitHunter); read-out: Average pEC50 [Receptor subtype: B2-AR; Cell type: CHO-K1 (HitHunter)] (converted)
# Experimental: cAMP homogeneous time-resolved fluorescence (HTRF). Compound efficacy was determined using the cAMP Gs dynamic HTRF assay (Cisbio, catalog #62AM4PEC) largely following the manufacturer's instructions, also detailed below. Compound preparation. […] Cell preparation. […] Cells were harvested using assay PBS, counted manually by hemocytometer or by an automated cell counter, pelleted by centrifugation (200×g, 5 minutes) and resuspended in 37° C. […] HTRF reagent addition, reading and data analysis. […]
METRIC NAME: EC50

CC(C)(C)NC[C@H](O)c1cccc(N2CC3CCCC3C2)n1 (stereo partly shown) = < 0.01 µM
CC(C)(C)NC[C@H](O)c1cccnc1-c1cccc(F)c1 = > 1 µM
CC(C)(C)NC[C@H](O)c1cccc(-n2ccnn2)n1 = 0.01 to 0.1 µM
Cc1ccc([C@@H](O)CNC(C)(C)C)c(C2CCCC2)n1 = 0.01 to 0.1 µM
Cc1ccccc1-c1cccc([C@@H](O)CNC(C)(C)C)n1 = < 0.01 µM
CC(C)(C)NC[C@H](O)c1cccnc1-c1c[nH]nn1 = 0.1 to 1 µM
CC(C)(C)NC[C@H](O)c1cccc(C(N)=O)n1 = > 1 µM
[2H]C([2H])([2H])C(NCC(O)c1cccnc1C)(C([2H])([2H])[2H])C([2H])([2H])[2H] (stereo not shown) = < 0.01 µM
Cc1ccc([C@@H](O)CNC(C)(C)C)nc1C#N = 0.1 to 1 µM
CC(C)(C)NC[C@@H](O)c1ccc(C(F)(F)F)cn1 = 0.1 to 1 µM

---

# MEASUREMENT TARGET: β1-adrenergic receptor (Homo sapiens (Human))
# Sequence (P08588 whole entry, species assumed): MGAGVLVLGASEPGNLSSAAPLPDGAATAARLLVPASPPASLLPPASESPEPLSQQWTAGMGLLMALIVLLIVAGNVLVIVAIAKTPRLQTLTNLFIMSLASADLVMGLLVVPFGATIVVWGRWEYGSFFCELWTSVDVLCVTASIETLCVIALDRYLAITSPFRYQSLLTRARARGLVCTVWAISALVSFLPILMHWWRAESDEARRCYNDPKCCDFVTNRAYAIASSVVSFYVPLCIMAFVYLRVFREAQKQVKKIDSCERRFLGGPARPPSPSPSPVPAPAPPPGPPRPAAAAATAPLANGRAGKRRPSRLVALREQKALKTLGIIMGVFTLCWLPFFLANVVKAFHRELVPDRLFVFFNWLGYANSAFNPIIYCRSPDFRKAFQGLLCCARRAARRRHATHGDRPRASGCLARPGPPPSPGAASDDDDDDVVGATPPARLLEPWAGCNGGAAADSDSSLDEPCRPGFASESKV
# TEST DETAILS: cAMP Gs dynamic HTRF assay, β1 expressing CHO cells
# Format: cell-based
# RUN PARAMETERS: B1-AR; CHO-K1 (HitHunter); read-out: Average pEC50 [Receptor subtype: B1-AR; Cell type: CHO-K1 (HitHunter)] (converted)
Recorded EC50, one value per entry.
METRIC NAME: EC50

CC(C)(C)NC[C@@H](O)c1ccnc(C#N)c1 = > 1000 nM
[2H]C([2H])([2H])Nc1cccc([C@@H](O)CNC(C)(C)C)n1 = > 1000 nM
Cc1cccc(-c2cccc([C@@H](O)CNC(C)(C)C)n2)c1 = 10 to 100 nM
CC(C)(C)NC[C@@H](O)c1cccc(C(F)(F)F)n1 = > 1000 nM
COc1ccc([C@@H](O)CNC(C)(C)C)c(C)n1 = 10 to 100 nM
CC(C)(C)NC[C@H](O)c1cccc(Cl)n1 = > 1000 nM
CC1(NC[C@@H](O)c2cccc(C(F)(F)F)n2)CCC1 = > 1000 nM
COc1ccc(C[C@@H](C)NC[C@H](O)c2cccnc2C)cc1 = 10 to 100 nM
Cc1ccccc1-c1cccc([C@H](O)CNC(C)(C)C)n1 = > 1000 nM
CC(C)(C)NC[C@@H](O)c1cccc(OC(F)(F)F)n1 = > 1000 nM
CC(C)(C)NC[C@H](O)c1cccnc1C(C)(F)F = > 1000 nM
CC(C)(C)NC[C@H](O)c1ccc(C#N)cn1 = > 1000 nM
COc1ccc(C[C@@H](C)NC[C@H](O)c2cccc(OC(F)(F)F)n2)cc1 = 10 to 100 nM
Cc1ccc([C@@H](O)CNC(C)(C)C)nc1C#N = > 1000 nM
CC(C)(C)NC[C@@H](O)c1cccc(-c2ccncc2)n1 = > 1000 nM
Cc1ccc([C@@H](O)CNC(C)(C)C)nc1C(F)(F)F = < 10 nM
CC(C)(C)NC[C@H](O)c1cccc(-n2cccn2)n1 = 100 to 1000 nM
CC(C)(C)NC[C@H](O)c1ccc(C(F)(F)F)cn1 = 10 to 100 nM
Cc1ccc([C@@H](O)CNC(C)(C)C)cn1 = 10 to 100 nM
Cc1ccc([C@H](O)CNC(C)(C)C)nc1C#N = 10 to 100 nM
Cn1ccc(-c2cccc([C@@H](O)CNC(C)(C)C)n2)n1 = > 1000 nM
CC(C)(C)NC[C@H](O)c1cccc(Br)n1 = < 10 nM
CC(C)(C)NC[C@H](O)c1cccc(Nc2ccccc2)n1 = < 10 nM
Cc1cccc([C@@H](O)CNC(C)(C)C)n1 = 10 to 100 nM
CC(C)(C)NC[C@H](O)c1cccc(NC2CC2)n1 = 10 to 100 nM
CC(C)(C)NC[C@H](O)c1cccc(-c2ccccc2F)n1 = 10 to 100 nM
CC1(NC[C@H](O)c2cccc(C(F)(F)F)n2)CC1 = 10 to 100 nM
CC(C)(C)NC[C@@H](O)c1cccc(C2=CCCC2)n1 = 10 to 100 nM
CC(C)(C)NC[C@H](O)c1cccc(C2CCCC2)n1 [Compound 03-237] = 10 to 100 nM
COc1ccc(C[C@@H](C)NC[C@H](O)c2cccc(C(F)(F)F)n2)cc1 = < 10 nM

Origin of values: patent US10947196B2
